Values from patent US20220064329A1

# subject_of_test: T1, recombinant human activated Factor VII (FVIIa) (human, UniProt P08709 61-212; P08709 213-466, ten glutamate residues of the Gla domain may be gamma-carboxylated)
# T1 construct: chains tethered by a disulfide bond; also called Factor VIIa; rFVIIa
# T1 sequence 1: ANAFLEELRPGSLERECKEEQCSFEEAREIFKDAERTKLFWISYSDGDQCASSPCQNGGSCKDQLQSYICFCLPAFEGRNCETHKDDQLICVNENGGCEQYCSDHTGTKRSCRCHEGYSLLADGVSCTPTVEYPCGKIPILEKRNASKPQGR
# T1 sequence 2: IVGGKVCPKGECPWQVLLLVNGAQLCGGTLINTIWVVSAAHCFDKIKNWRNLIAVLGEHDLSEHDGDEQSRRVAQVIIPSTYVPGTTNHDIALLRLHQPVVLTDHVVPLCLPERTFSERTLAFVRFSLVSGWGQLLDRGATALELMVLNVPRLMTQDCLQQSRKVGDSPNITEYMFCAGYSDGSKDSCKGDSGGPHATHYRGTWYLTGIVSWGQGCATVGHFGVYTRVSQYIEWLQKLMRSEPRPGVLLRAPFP
# assay_protocol: BLI (Fortebio)
# Experimental: All steps were performed in running buffer (20 mM HEPES buffer (pH 7.4), 150 mM NaCl, 5 mM CaCl2, 0.03% Tween 20, 1 mg/ml IgG-free BSA) at […] Antibodies were captured on anti-human tips (AHC, Fortebio) for 3 min at a concentration of 10 ug/ml. […] Following this, association was monitored for 3 min using four different concentrations of VIIa (25 nm, 50 nM, 100 nM, and 200 nM), followed by a 3 mi dissociation. Sensorgrams were analysed using Fortebio data analysis software.
observable: Kd (nM)
Give a bare numeral; the unit nM is implied.

Use these answered entries as a reference point.
* VH SEQ ID NO 586 / VL SEQ ID NO 462 (antibody, IgG4, V domains shown, humanized 11F2; IgG4 S228P/kappa) VH: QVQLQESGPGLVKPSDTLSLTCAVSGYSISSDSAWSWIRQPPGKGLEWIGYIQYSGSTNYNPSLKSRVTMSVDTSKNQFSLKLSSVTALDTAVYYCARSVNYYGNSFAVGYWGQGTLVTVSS VL: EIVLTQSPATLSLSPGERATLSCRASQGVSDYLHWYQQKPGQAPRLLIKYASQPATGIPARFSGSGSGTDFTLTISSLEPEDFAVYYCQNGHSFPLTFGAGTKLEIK | 18
* VH SEQ ID NO 602 / VL SEQ ID NO 462 (antibody, IgG4, V domains shown, humanized 11F2; IgG4 S228P/kappa) VH: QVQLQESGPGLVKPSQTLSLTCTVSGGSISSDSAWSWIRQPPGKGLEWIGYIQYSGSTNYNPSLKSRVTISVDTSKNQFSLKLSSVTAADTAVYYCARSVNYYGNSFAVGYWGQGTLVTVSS VL: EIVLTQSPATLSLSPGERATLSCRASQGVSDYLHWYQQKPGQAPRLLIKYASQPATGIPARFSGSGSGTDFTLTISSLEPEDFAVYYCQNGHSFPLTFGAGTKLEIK | 15

Input VH SEQ ID NO 626 / VL SEQ ID NO 430 (antibody, IgG4, V domains shown, humanized 11F2; IgG4 S228P/kappa) VH: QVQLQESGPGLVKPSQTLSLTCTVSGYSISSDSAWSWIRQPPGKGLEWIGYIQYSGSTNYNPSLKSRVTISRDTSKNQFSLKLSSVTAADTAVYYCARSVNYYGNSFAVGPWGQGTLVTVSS VL: EIVLTQSPATLSLSPGERATLSCRASQGVSDYLAWYQQKPGQAPRLLIKYASQPATGIPARFSGSGSGTDFTLTISSLEPEDFGVYYCQNGHSFPLTFGQGTKLEIK . Output Kd: 53
